Items are presented alongside their recorded glycan array binding signal (z-score).
molecular target: Fuc(a1-2)[GalNAc(a1-3)]Gal(b1-4)GlcNAc(b1-3)Gal(b1-4)GlcNAc; assay: glycan array binding signal (z-score within array); higher = stronger binding; conditions: glycan notation: IUPAC condensed, linker removed
The entries come from a sample that favours the strongest signals as a whole.
RECORDED_ENDPOINT: glycan array binding signal (z-score)

{"columns": ["BINDER", "QUANTITATIVE_READOUT"],
 "data": [
  ["Gal 8 (Homo sapiens), O00214_1 (protein) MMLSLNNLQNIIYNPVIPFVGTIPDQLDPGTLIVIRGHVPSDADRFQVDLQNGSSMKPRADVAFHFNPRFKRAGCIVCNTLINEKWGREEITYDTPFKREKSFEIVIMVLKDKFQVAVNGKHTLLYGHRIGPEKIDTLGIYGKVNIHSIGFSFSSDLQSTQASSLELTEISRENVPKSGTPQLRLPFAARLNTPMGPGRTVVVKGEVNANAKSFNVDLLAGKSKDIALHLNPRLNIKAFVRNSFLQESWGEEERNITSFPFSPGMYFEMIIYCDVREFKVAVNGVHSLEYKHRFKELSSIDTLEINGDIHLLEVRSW", 2.58],
  ["HPA (Helix pomatia), Q575S3 (protein) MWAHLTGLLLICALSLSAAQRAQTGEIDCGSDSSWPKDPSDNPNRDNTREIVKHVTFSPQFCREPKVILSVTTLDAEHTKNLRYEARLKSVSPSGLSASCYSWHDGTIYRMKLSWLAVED", 4.44],
  ["Arath Fbox (Arabidopsis thaliana), NP_178341.1 (protein) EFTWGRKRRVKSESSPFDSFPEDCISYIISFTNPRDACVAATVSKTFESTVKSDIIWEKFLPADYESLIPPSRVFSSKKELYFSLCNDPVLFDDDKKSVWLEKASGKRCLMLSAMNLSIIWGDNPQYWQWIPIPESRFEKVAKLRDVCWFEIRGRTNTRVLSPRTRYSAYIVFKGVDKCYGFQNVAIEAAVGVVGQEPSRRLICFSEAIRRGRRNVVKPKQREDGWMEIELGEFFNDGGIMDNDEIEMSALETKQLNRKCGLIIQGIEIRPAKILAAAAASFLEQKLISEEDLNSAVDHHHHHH", -0.64]
]}
